tested on: TGFBR2 mRNA; assay: remaining TGFBR2 mRNA relative to control siRNA (off-target knock-down) (fraction of control); quantification method: branched DNA; higher = less knock-down
Task for the reader: assign each of the following sequences its reported remaining TGFBR2 mRNA.
Give bare numbers.

1) UUAUAAGCCAAAGUGCGUCTT	1.66
2) GGGCUGUCAAUGACAGCUUTT	0.6

*Q* Look up remaining TGFBR2 mRNA: `UUCAAGGUCAGUCUCUGGGTT`
*A* 0.51

----------
tested on: TGFBR2 mRNA; test: remaining TGFBR2 mRNA relative to control siRNA (off-target knock-down) (fraction of control); quantification method: branched DNA; higher = less knock-down
Classes are defined on remaining TGFBR2 mRNA with ranges lower range: < 0.3; middle range: ≥ 0.3 and < 0.7; upper range: ≥ 0.7

// known answers, use as guide
1. UCCUUGGUCCAUUAGGAGATT	lower range
2. AAUGCUGUUGGCAGCCAGATT	lower range

Now let's try a different one.
*Q* Place this sequence in its band: `ACAGCCUCGAACACUGACATT`
*A* middle range
